- Run Description: Toxicity liver stage against HepG2, at 10uM
- Assay type: cell-based
- Parameters: test concentration 10 uM, cell line HepG2-A16-CD81EGFP
- Assay Setup: human, HepG2-A16-CD81EGFP cells; read-out: INHIBITION
Quantity Kind: cytotoxicity at 10 µM (%)

{"columns": ["Compound", "Observed Result"],
 "data": [
  ["CC(c1ccccn1)N(C)Cc1cccc(C(=O)Nc2nccn2C)c1 (stereo not given)", 14.6],
  ["O=C1NCC(C(=O)Nc2ncc(Cc3ccccc3F)s2)N1 (stereo not given)", -1.11],
  ["Cc1n[nH]c(C2CN(C(=O)c3cc(C4CC4)on3)CCO2)n1 (stereo not given)", -9.63],
  ["CC[C@H]1CN(S(=O)(=O)c2ccc(OC)cc2)CC[C@H]1CC(=O)O", 7.28],
  ["COCc1nc(C(=O)N2CCCC(n3ccnc3C(C)C)C2)cs1 (stereo not given)", -30.8]
]}

* * *

- Run Description: Toxicity liver stage against HepG2, at 10uM
- Type: cell-based
- Design: test concentration 10 uM, cell line HepG2-A16-CD81EGFP
- Assay Setup: human, HepG2-A16-CD81EGFP cells; read-out: INHIBITION

{"columns": ["Molecule", "cytotoxicity at 10 µM / %"],
 "data": [
  ["COCC(=O)N1Cc2ccnn2CC(COCCN(C)C)C1 (configuration not stated)", 6.82],
  ["COCCCNC(=O)NCc1ccc(C)cc1", 3.37],
  ["O=C(C[C@@H]1COC[C@H]2CN(Cc3cccnc3)C[C@@H]12)NCC1CC1", 0.752],
  ["O=C(c1ccnnc1)N1CCc2onc(Cn3cccn3)c2C1", 0.529],
  ["CN(Cc1cc[nH]n1)C(=O)c1cn(Cc2c(F)cccc2F)nn1", 7.29],
  ["O=C1C[C@@H]2CC[C@H](CN1)N2C1CCSCC1", 0.915],
  ["Cc1nc(CN2C(=O)CC[C@@H]3[C@H]2CCN3C2CCOC2)cs1 (some centres not stated)", -141],
  ["Cc1cc(C)nc(N2CCC(C(=O)O)(n3ccc(C(C)(C)C)n3)CC2)n1", -5.6],
  ["CN1CCC(NC(=O)[C@H]2CC[C@@H]3[C@@H](CCN3c3ncccn3)O2)CC1", 7.43],
  ["CS(=O)(=O)c1cccc(C(N)c2ccc(F)c(F)c2)c1 (configuration not stated)", 6.62],
  ["CCOc1cccc(C(=O)NCCC(=O)NCc2ccncc2)c1", 0.961],
  ["c1ccc(CO[C@@H]2CN(Cc3ccoc3)[C@@H]3COC[C@@H]32)nc1", -105]
]}

* * *

- Run Description: Toxicity liver stage against HepG2, at 10uM
- Assay type: cell-based
- Set-up: test concentration 10 uM, cell line HepG2-A16-CD81EGFP
- Assay Setup: human, HepG2-A16-CD81EGFP cells; read-out: INHIBITION

{"columns": ["Compound", "Display Unit", "cytotoxicity at 10 µM"],
 "data": [
  ["COc1c(Br)c(C(=O)NC2CCCCC2)nn1C", "%", 6.94],
  ["CC(C)N1CCC(NC(=O)NC2CCOc3ccc(Br)cc32)CC1 (stereo not drawn)", "%", -6.64],
  ["CCC(CNC(=O)c1ccccc1OC)N1CCc2ccccc2C1 (stereo not drawn)", "%", 12],
  ["Cc1nc(CN2CCCC(Cn3cncn3)C2)nc2ccccc12 (stereo not drawn)", "%", -16.2],
  ["CS(=O)(=O)Nc1cnn(Cc2cccc(Cl)c2)c1", "%", -2.44],
  ["CCOC(=O)c1cnn(-c2cc(Oc3cc(C)ccc3C)ncn2)c1N", "%", 11.3],
  ["CC(C)NC(=O)CNC(=O)c1csc(Cc2ccccc2F)n1", "%", -4.44],
  ["COc1c(CNCc2nnc3n2CCCCC3)c(C)nn1C", "%", 9.03],
  ["Cc1oc(C(=O)O)cc1S(=O)(=O)Nc1cccc(-n2nccc2C)c1", "%", 4.46],
  ["O=C(c1cc(F)ccc1F)C1CCN(C(=O)c2ccco2)CC1", "%", 3.15],
  ["CCC[C@H]1CN(c2nccc(NCC)n2)C[C@@H]1NS(=O)(=O)N(C)C", "%", -144],
  ["COc1ccccc1C(C)CC(=O)N1CC[C@H](O)C1 (stereo partly drawn)", "%", -55.7],
  ["Cc1c(COC(C)C)cccc1NC(=O)N1CC[C@H](O)C1", "%", -11]
]}
